# measurement-conditions: in benzene, 303.19 K
measure-name: solubility (mole fraction)

                smiles_repr                measure_name  reported_result
0  O=P(O)(c1ccccc1)c1ccccc1  solubility (mole fraction)          0.00112

###

# measurement-conditions: in acetone, 293.25 K
measure-name: solubility (mole fraction)

>>> print(df.to_string())
                smiles_repr                measure_name  reported_result
0  O=P(O)(c1ccccc1)c1ccccc1  solubility (mole fraction)          0.00051

###

# measurement-conditions: in acetone, 303.12 K
measure-name: solubility (mole fraction)

>>> df
                smiles_repr  reported_result
0  O=P(O)(c1ccccc1)c1ccccc1          0.00091

###

# measurement-conditions: in benzene, 322.95 K
measure-name: solubility (mole fraction)

In [3]: df
Out[3]:
                smiles_repr                measure_name  reported_result
0  O=P(O)(c1ccccc1)c1ccccc1  solubility (mole fraction)          0.00291

###

# measurement-conditions: in ethanol, 322.84 K
measure-name: solubility (mole fraction)

>>> print(df.to_string())
                smiles_repr                measure_name  reported_result
0  O=P(O)(c1ccccc1)c1ccccc1  solubility (mole fraction)           0.0173

###

# measurement-conditions: in toluene, 303.16 K
measure-name: solubility (mole fraction)

                smiles_repr  reported_result
0  O=P(O)(c1ccccc1)c1ccccc1          0.00074

###

# measurement-conditions: in 2-ethoxyethanol, 323.16 K
measure-name: solubility (mole fraction)

>>> print(df.to_string())
                smiles_repr  reported_result
0  O=P(O)(c1ccccc1)c1ccccc1           0.0151

###

# measurement-conditions: in ethanol, 303.07 K
measure-name: solubility (mole fraction)

                smiles_repr  reported_result
0  O=P(O)(c1ccccc1)c1ccccc1           0.0102

###

# measurement-conditions: in isopropanol, 338.17 K
measure-name: solubility (mole fraction)

                smiles_repr                measure_name  reported_result
0  O=P(O)(c1ccccc1)c1ccccc1  solubility (mole fraction)           0.0189

###

# measurement-conditions: in ethanol, 318.16 K
measure-name: solubility (mole fraction)

>>> df
                smiles_repr  reported_result
0  O=P(O)(c1ccccc1)c1ccccc1           0.0152

###

# measurement-conditions: in 2-ethoxyethanol, 353.25 K
measure-name: solubility (mole fraction)

                smiles_repr                measure_name  reported_result
0  O=P(O)(c1ccccc1)c1ccccc1  solubility (mole fraction)           0.0321

###

# measurement-conditions: in ethyl acetate, 303.15 K
measure-name: solubility (mole fraction)

>>> df
                smiles_repr                measure_name  reported_result
0  O=P(O)(c1ccccc1)c1ccccc1  solubility (mole fraction)          0.00075

###

# measurement-conditions: in ethyl acetate, 298.15 K
measure-name: solubility (mole fraction)

>>> print(df.to_string())
                smiles_repr  reported_result
0  O=P(O)(c1ccccc1)c1ccccc1           0.0006
